- EXPERIMENT_DESCRIPTION: Pharmacokinetics in male CD-1 mice
- Assay type: in vivo
- EXPERIMENTAL_CONTEXT: mouse, 3 mg/kg IV, mean plasma, read-out: Vdss
- Experimental: The pharmacokinetic profile of the Example 2 (compound la) was determined in male CD-1 mice by WuXi AppTec Co., Ltd., 1318 Wuzhong Avenue, Wuzhong District, Suzhou, China, 215104.
METRIC_NAME: Vd (L/kg)
Number in L/kg, nothing else.

What value of measured Vd is listed for C=C(F)C(=O)N1CCN(c2nc(OC[C@@H]3CCCN3C)nc3cc(-c4cccc5cccc(Cl)c45)cnc23)C[C@@H]1CC#N ?
3.44

* * *

- EXPERIMENT_DESCRIPTION: Pharmacokinetics in male CD-1 mice
- Type: in vivo
- EXPERIMENTAL_CONTEXT: mouse, 30 mg/kg PO, mean plasma
METRIC_NAME: Tmax (h)
Quick reminder: number only, in h, skip the unit.

Query: Tmax; subject: C=C(F)C(=O)N1CCN(c2nc(OC[C@@H]3CCCN3C)nc3cc(-c4cccc5cccc(Cl)c45)cnc23)C[C@@H]1CC#N [Example 2]
1

* * *

- EXPERIMENT_DESCRIPTION: Pharmacokinetics in male CD-1 mice
- Type: in vivo
- EXPERIMENTAL_CONTEXT: mouse, 3 mg/kg IV, mean plasma, read-out: MRT0-last
METRIC_NAME: MRT last
Mention the unit after the number when you answer.

Consider the compound C=C(F)C(=O)N1CCN(c2nc(OC[C@@H]3CCCN3C)nc3cc(-c4cccc5cccc(Cl)c45)cnc23)C[C@@H]1CC#N and give its measured MRT last.
2 h

* * *

- SYSTEM_UNDER_TEST: KRAS G12C (Homo sapiens, UniProt P01116, G12C)
- Construct: aa 2-169, expressed in E. coli; His-tag (TEV cleavable) (N); KRAS G12C: none printed
- Sequence (P01116 2-169 G12C): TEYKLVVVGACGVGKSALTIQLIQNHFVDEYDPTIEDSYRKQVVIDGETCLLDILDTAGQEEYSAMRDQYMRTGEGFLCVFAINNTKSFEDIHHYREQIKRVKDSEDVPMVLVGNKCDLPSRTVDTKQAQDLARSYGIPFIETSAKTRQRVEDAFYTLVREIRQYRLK
- EXPERIMENT_DESCRIPTION: KRAS G12C/SOS1 Nucleotide Exchange Assay (SOS1-mediated Bodipy-GDP to GTP exchange)
- EXPERIMENTAL_CONTEXT: substrate Bodipy-GDP/Kras G12C, 0.5% DMSO; 30 min pre-incubation at RT; dRFU analysis method for covalent inhibitors
What pIC50 was measured for each of the following?
The meaning of pIC50 here: minus log10 of the concentration in molar units.

Suppose we examine the molecule C=C(F)C(=O)N1CCN(c2nc(OC[C@@H]3CCCN3C)nc3cc(-c4cccc5cccc(Cl)c45)cnc23)C[C@@H]1CC#N ; what pIC50 value has been reported?
7.20

Any idea what its pIC50 is? The molecule is C=CC(=O)N1CCN(c2nc(OC[C@@H]3CCCN3C)nc3cc(-c4cccc5cccc(Cl)c45)cnc23)C[C@@H]1CC#N
7.57

* * *

- EXPERIMENT_DESCRIPTION: Pharmacokinetics in male CD-1 mice
- Format: in vivo
- EXPERIMENTAL_CONTEXT: mouse, 30 mg/kg PO, mean plasma, read-out: MRT0-last
METRIC_NAME: MRT last (h)
Just the number in h, nothing appended.

Consider the compound C=C(F)C(=O)N1CCN(c2nc(OC[C@@H]3CCCN3C)nc3cc(-c4cccc5cccc(Cl)c45)cnc23)C[C@@H]1CC#N and give its measured MRT last.
3.22

* * *

- EXPERIMENT_DESCRIPTION: Pharmacokinetics in male CD-1 mice
- Assay type: in vivo
- EXPERIMENTAL_CONTEXT: mouse, 30 mg/kg PO, mean plasma
METRIC_NAME: AUC(0-inf) (ng·h/mL)
Answer format: numeric, ng·h/mL implied, no suffix.

Tell me the measured AUC(0-inf) of C=C(F)C(=O)N1CCN(c2nc(OC[C@@H]3CCCN3C)nc3cc(-c4cccc5cccc(Cl)c45)cnc23)C[C@@H]1CC#N [Example 2] , please.
7070
